- assay_info: in vitro
- experimental_parameters: hamster, hepatocytes, CLint (hamster hepatocytes, compound/ritonavir 2:1)
hepatocyte CLint at 1 µM overview
Supply the numeric figure in µL/min/1e6 cells, leaving out any unit text.

Consider the molecule shown here: COc1cccc2[nH]c(C(=O)N[C@@H](Cc3cccc(F)c3)C(=O)N[C@@H](C[C@@H]3CCNC3=O)C(=O)COc3c(F)c(F)c(C(C)(C)O)c(F)c3F)cc12 [compound 10] What is its recorded hepatocyte CLint at 1 µM? 30.7

Entry under review: CC(C)(C)[C@H](NC(=O)C(F)(F)F)C(=O)N1C[C@H]2[C@@H]([C@H]1C(=O)N[C@@H](C[C@@H]1CCNC1=O)C(=O)COc1c(F)c(F)c(CO)c(F)c1F)C2(C)C [compound 7] . Reported hepatocyte CLint at 1 µM? 27.4

So what does the record say about hepatocyte CLint at 1 µM for CC(C)(O)c1c(F)c(F)c(OCC(=O)[C@H](C[C@@H]2CCNC2=O)NC(=O)[C@@H]2[C@@H]3[C@H](CN2C(=O)[C@@H](NC(=O)C(F)(F)F)C(C)(C)C)C3(C)C)c(F)c1F [compound 14] ? 25.4

Others:
Form field: reported hepatocyte CLint at 1 µM of COc1cccc2[nH]c(C(=O)N[C@@H](Cc3cccc(F)c3)C(=O)N[C@@H](C[C@@H]3CCNC3=O)C(=O)COc3c(F)c(F)c(C(C)O)c(F)c3F)cc12 (some centres unmarked) [compound 8] 31.7

Entry under review: COc1cccc2[nH]c(C(=O)N[C@@H](Cc3cccc(F)c3)C(=O)N[C@@H](C[C@@H]3CCNC3=O)C(=O)COc3c(F)c(F)c(CO)c(F)c3F)cc12 [compound 1] . Reported hepatocyte CLint at 1 µM? 48.1
